Below, each of the compounds is paired with its reported inhibition value.
# Target entity: Mast/stem cell growth factor receptor Kit (Homo sapiens) (UniProt P10721)
# Sequence (P10721 whole entry): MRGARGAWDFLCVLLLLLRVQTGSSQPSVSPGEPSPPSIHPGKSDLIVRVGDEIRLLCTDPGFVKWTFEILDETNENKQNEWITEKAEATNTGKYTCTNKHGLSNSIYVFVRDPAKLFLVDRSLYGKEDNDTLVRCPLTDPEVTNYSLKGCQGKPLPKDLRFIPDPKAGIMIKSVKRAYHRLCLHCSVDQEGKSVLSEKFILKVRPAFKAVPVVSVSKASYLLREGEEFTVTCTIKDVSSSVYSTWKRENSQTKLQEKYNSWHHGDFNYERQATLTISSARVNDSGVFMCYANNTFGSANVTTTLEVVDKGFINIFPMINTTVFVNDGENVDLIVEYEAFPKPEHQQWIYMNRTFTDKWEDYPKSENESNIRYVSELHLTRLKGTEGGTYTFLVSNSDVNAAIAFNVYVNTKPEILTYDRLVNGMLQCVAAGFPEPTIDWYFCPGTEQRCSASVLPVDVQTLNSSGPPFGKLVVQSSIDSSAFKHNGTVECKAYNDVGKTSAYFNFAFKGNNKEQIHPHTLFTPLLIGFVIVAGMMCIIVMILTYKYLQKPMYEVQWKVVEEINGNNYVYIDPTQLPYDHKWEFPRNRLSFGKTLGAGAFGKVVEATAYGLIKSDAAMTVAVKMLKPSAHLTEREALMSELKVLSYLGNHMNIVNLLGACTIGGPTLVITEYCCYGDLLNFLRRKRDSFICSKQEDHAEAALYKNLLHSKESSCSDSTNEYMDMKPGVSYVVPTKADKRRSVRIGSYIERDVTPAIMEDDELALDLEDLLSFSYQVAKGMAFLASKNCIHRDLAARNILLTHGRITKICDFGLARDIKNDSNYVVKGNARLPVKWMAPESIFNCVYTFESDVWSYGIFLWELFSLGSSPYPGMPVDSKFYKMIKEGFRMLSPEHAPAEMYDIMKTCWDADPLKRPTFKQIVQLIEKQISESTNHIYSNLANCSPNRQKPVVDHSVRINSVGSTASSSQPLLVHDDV
# Experimental conditions: at 1 µM
Quick reminder: number only, in %, skip the unit.

Any idea what its inhibition is? The compound is `CN(C)CCNC(=O)Nc1ccc(N(C)c2ccnc(Nc3ccc(CS(C)(=O)=O)cc3)n2)cc1` 57.6

Any idea what its inhibition is? The compound is `CNC(=O)c1cncc(/C=C/c2ccccc2C)c1` 14.5

Any idea what its inhibition is? The compound is `NS(=O)(=O)c1cccc(N/C=C2\C(=O)Nc3ccccc32)c1` 63.9

Any idea what its inhibition is? The compound is `c1ccc(-c2n[nH]cc2-c2ccnc(-c3ccc(OCCn4ccnc4)cc3)c2)nc1` 11.4

Any idea what its inhibition is? The compound is CC1=C(C(=O)Nc2ccc3[nH]ncc3c2)C(c2ccc(F)cc2)N=C(c2ccc(C(F)(F)F)nc2)N1 (stereo not given) 5.44

Further cases:
Any idea what its inhibition is? The compound is `Cc1nnc(-c2cccc(-c3ccc(C(=O)NCC4CC4)cc3)c2)o1` 9.77

Any idea what its inhibition is? The compound is `NC(=O)c1ccc2c(-c3ccnc(NCCCO)n3)c(-c3ccc(F)cc3)nn2c1` 25.4

Any idea what its inhibition is? The compound is `COC(=O)Nc1nc2cc(Oc3ccc(NC(=O)Nc4ccccc4)cc3)ccc2[nH]1` 68

Any idea what its inhibition is? The compound is `Cc1c2ccc(N(C)c3ccnc(Nc4cccc(S(N)(=O)=O)c4)n3)cc2nn1C` 98

Any idea what its inhibition is? The compound is `N#Cc1cccc(Nc2ncc(-c3ccccc3)o2)c1` 79.6

Any idea what its inhibition is? The compound is `O=C(O[C@H]1CN[C@H](C#Cc2cc3ncnc(Nc4ccc5c(ccn5Cc5cc(F)ccc5F)c4)c3s2)C1)N1CCOCC1` 2.34

Any idea what its inhibition is? The compound is `COc1ccccc1-c1cc(/C=C2\C(=O)Nc3ncc(Br)cc32)cc(Br)c1O` 27.9

Any idea what its inhibition is? The compound is `CS(=O)(=O)CCNCc1ccc(-c2ccc3ncnc(Nc4ccc(OCc5cccc(C(F)(F)F)c5)cc4)c3c2)o1` 11.4
